Where these numbers come from: ChEMBL document CHEMBL2203185

# Subject of test: Neuropeptide FF receptor 2 (Homo sapiens, UniProt Q9Y5X5)
# Sequence (Q9Y5X5 whole entry): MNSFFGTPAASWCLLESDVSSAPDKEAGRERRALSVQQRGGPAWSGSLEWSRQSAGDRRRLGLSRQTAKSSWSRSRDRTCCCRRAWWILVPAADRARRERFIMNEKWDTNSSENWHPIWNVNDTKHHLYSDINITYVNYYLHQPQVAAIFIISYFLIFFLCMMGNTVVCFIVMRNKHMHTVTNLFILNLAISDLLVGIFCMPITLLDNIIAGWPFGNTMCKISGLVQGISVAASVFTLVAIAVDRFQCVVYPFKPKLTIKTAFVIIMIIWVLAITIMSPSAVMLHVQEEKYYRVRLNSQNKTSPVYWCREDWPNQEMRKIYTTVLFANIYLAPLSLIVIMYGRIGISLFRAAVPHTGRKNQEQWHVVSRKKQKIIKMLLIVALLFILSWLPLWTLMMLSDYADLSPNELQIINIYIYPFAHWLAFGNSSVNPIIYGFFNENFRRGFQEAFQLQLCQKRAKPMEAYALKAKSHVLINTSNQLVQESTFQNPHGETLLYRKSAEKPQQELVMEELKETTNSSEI
# Test name: Displacement of [3H]FFRF-NH2 from human flag-tagged NPFF2 receptor expressed in CHO cells at 5 uM by scintillation counting
# Type: cell-based
Experimental endpoint: inhibition (%)

Here are 3 molecules together with their reported answers.
>  <Compound>
COc1cccc(C(=O)N[C@@H](CCCNC(=N)N)C(=O)N[C@@H](Cc2ccccc2)C(N)=O)c1

>  <Readout number>
60

$$$$
>  <Compound>
N=C(N)NCCC[C@@H](NC(=O)c1cccc(-c2ccccc2)c1)C(=O)N[C@@H](Cc1ccccc1)C(N)=O

>  <Readout number>
72

$$$$
>  <Compound>
N=C(N)NCCC[C@H](NC(=O)c1cccc(Cl)c1)C(=O)N[C@@H](Cc1ccccc1)C(N)=O

>  <Readout number>
20

$$$$

(I) N=C(N)NCCC[C@H](NC(=O)c1ccncc1)C(=O)N[C@@H](Cc1ccccc1)C(N)=O
(II) N=C(N)NCCC[C@H](NC(=O)c1ccc(C(=O)c2ccccc2)cc1)C(=O)N[C@@H](Cc1ccccc1)C(N)=O
(III) N=C(N)NCCC[C@H](NC(=O)c1ccc2ccccc2n1)C(=O)N[C@@H](Cc1ccccc1)C(N)=O
Q. Ascending by inhibition, please. Answer by listing the labels in the order asked for.
A. I, II, III

(I) N=C(N)NCCC[C@H](NC(=O)c1ccc(O)c(O)c1)C(=O)N[C@@H](Cc1ccccc1)C(N)=O
(II) N=C(N)NCCC[C@H](NC(=O)c1cnc2ccccc2c1)C(=O)N[C@@H](Cc1ccccc1)C(N)=O
Q. For the two items I and II , which reports the higher inhibition value? Reply briefly: the label of your chosen item.
A. II
